B1: H2-Kb / Ed23 (parent complex)
chain 1: QQKVQQSPESLTVSEGAMASLNCTFSDRSSDNFRWYRQHSGKGLEVLVSIFSDGEKEEGSFTAHLNRASLHVFLHIREPQPSDSALYLCAVRGFWTNKVVFGTGTRLQVLP
chain 2: AQTIHQWPVAEIKAVGSPLSLGCTIKGKSSPNLYWYWQATGGTLQQLFYSITVGQVESVVQLNLSASRPKDDQFILSTEKLLLSHSGFYLCAWSPRQSSYEQYFGPGTRLTVL
chain 3: not shown
chain 4: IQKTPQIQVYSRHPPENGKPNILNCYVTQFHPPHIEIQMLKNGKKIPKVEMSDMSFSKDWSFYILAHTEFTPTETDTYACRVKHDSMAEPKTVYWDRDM
chain 5: SIINFEKL

# Variants of: B1
# assay_info: % of reporter cells activated (NFAT-GFP), raw; note: test concentration or dose not given here
Listed here are variants together with their documented ratio to parent.

Look over these answered cases.
chain 5 E6A	0.157
chain 5 I2C	1.38
chain 5 F5G	0.894

Now for another entry.
Query: Which value of ratio to parent has been reported for chain 5 K7W in the records?
Response: 0.975
